The measurements presented in this section are drawn from ChEMBL document CHEMBL1201862.

tested on: OVCAR-3; test: NCI tumour cell line growth inhibition, 48 h
Activity calls are given as the source filed them. No stated cut-off is given here; in the data, active = GI50 up to about 1.1 µM and inactive = higher.
Outcome (select one): active, inactive

Look over these answered cases.
compound=O=C(Nc1ccc(Cl)cc1)Oc1ccc(C(=S)Nc2ccc(Br)cc2)cc1 classification=inactive
compound=Nc1ccc(-c2nc3cc(F)ccc3s2)cc1I classification=active
compound=C#C[C@]1(O)CC[C@H]2[C@@H]3CCC4=C/C(=N/OC(=O)c5cccc6c(=O)c7ccccc7[nH]c56)CC[C@@H]4[C@H]3CC[C@@]21C classification=inactive
compound=O=c1cc(O)c2c(O)cc(O)cc2o1 classification=inactive
compound="CCc1cn(C2CC(CO)C(CO)S2)c(=O)[nH]c1=O (stereo not drawn)" classification=inactive

Query string: What did this assay record as the result for COc1ccc(Nc2nc3c(N)cc(C(F)(F)F)cc3nc2-c2ccccc2)cc1OC ?
Result string: inactive

Query string: What did this assay record as the result for CC1=C(CO)C(=O)OC(C(C)C2CCC3C4CC5OC56C(O)C(N5CC5)=CC(=O)C6(C)C4CCC23C)C1 (stereo not drawn) ?
Result string: inactive

Query string: What did this assay record as the result for CCC(/C(=N\Nc1c(Cl)cc(Cl)cc1Cl)c1ccccc1)n1ccnc1C (stereo not drawn) ?
Result string: inactive

====

system: PC-3; assay: NCI tumour cell line growth inhibition, 48 h
Activity calls are given as the source filed them. Cut-off read from the data, not from the text of the source: active = GI50 up to about 1.1 µM and inactive = higher.
Outcome (select one): 1.0 for active, 0.0 for inactive

Look over these answered cases.
molecule=CC(=O)Nc1ccc(C(=O)N[C@@H]2C(=O)N3[C@@H]2SC(C)(C)[C@@H]3C(=O)O)cn1 classification=0.0
molecule=Nc1ncc(Cc2nn3c(COc4ccc(Cl)cc4)nnc3s2)s1 classification=0.0
molecule=CC(=O)O[C@H]1C(=O)[C@@]2(C)[C@H]([C@H](OC(=O)C3CCCCC3)[C@]3(O)C[C@H](OC(=O)[C@H](O)[C@@H](NC(=O)C4CCCCC4)C4CCCCC4)C(C)=C1C3(C)C)[C@]1(OC(C)=O)CO[C@@H]1C[C@@H]2O classification=1.0
molecule="O=NC1c2cccc3cccc(c23)C1N=O (stereo unspecified)" classification=0.0
molecule=O=c1oc2ccc(Cl)cc2c2ccccc12 classification=0.0

Query string: What did this assay record as the result for COc1ccc(N(CC(=O)O)N=O)cc1 ?
Result string: 0.0

Query string: What did this assay record as the result for CN(C)CCS/C(=N\c1ccccc1)N1C=COC=C1 ?
Result string: 0.0

Query string: What did this assay record as the result for Cc1cccc(Cl)c1NCC(O)CN1CCN(C)CC1 (stereo unspecified) ?
Result string: 0.0

====

Reported GI50 is given for each of the following molecules.
tested on: LXFL 529; experiment: NCI tumour cell line growth inhibition, 48 h
Activity calls are given as the source filed them. Rule as the data show it: active = GI50 up to about 1.1 µM and inactive = higher.

molecule=CCOC(=O)CC(=O)ON(C)C(C)=O assay_system="LXFL 529" recorded_endpoint=GI50 recorded_measurement="> 100 µM (inactive)"
molecule=O=C(CCc1cc(-c2ccc(F)cc2)n[nH]1)N(Cc1ccccc1)Cc1ccccc1 assay_system="LXFL 529" recorded_endpoint=GI50 recorded_measurement="> 100 µM (inactive)"
molecule="CN(C)CC1CC/C(=C\\c2ccc3c(c2)OCO3)C1=O (centres undefined)" assay_system="LXFL 529" recorded_endpoint=GI50 recorded_measurement="12.6 µM (inactive)"

Query string: // fetch GI50; item: CC1(C)OC2OC(/C=C/[N+](=O)[O-])C3OC(C)(C)OC3C2O1 (centres undefined) ; system: LXFL 529
Result string: 2.76 µM (inactive)
